src = patent EP4039268A1

Assignment: determine reported Mean normalized OD for the given binders.
target: T1, human recombinant soluble ACE2 (human, UniProt Q9BYF1 18-740); experiment: ELISA screen
T1 construct: also called hrsACE2
T1 sequence (Q9BYF1 18-740 limits assumed): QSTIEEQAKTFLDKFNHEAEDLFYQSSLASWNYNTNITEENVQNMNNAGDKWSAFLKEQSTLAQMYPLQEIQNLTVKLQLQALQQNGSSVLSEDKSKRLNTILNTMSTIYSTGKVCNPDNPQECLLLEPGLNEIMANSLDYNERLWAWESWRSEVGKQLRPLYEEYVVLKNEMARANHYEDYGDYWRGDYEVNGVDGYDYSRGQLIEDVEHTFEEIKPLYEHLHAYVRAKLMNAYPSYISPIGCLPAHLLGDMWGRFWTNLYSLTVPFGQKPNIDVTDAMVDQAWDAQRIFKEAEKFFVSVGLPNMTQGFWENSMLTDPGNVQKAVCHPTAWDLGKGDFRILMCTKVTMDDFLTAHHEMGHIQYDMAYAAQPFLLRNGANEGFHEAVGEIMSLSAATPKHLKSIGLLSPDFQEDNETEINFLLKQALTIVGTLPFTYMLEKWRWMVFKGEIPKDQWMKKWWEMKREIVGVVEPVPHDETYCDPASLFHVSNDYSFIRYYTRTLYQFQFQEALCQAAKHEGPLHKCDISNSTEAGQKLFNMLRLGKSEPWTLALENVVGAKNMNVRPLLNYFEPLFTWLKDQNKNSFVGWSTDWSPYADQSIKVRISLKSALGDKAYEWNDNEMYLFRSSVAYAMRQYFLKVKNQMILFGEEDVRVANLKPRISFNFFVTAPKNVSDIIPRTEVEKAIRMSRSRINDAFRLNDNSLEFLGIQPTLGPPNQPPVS
# number only, unit OD dropped from output

stdin: Specify measured Mean normalized OD for Lgals4_1 CRD-mouse IgG2a-Fc fusion protein (Fc fusion) YKRPIPGGLSVGMSVYIQGMAKENMRRFHVNFAVGQDDGADVAFHFNPRFDGWDKVVFNTMQSGQWGKEEKKKSMPFQKGKHFELVFMVMPEHYKVVVNGNSFYEYGHRLPVQMVTHLQVDGDLELQSINFLGGGSGGGSGGGS .
stdout: 0.2

stdin: Specify measured Mean normalized OD for Mrc1_6 CRD-mouse IgG2a-Fc fusion protein (Fc fusion) YKNKCFKIFGFANEEKKSWQDARQACKGLKGNLVSIENAQEQAFVTYHMRDSTFNAWTGLNDINAEHMFLWTAGQGVHYTNWGKGYPGGRRSSLSYEDADCVVVIGGNSREAGTWMDDTCDSKQGYICQGGGSGGGSGGGS .
stdout: -0.001

stdin: Specify measured Mean normalized OD for Mrc1_2 CRD-mouse IgG2a-Fc fusion protein (Fc fusion) YAGHCYRIHREEKKIQKYALQACRKEGGDLASIHSIEEFDFIFSQLGYEPNDELWIGLNDIKIQMYFEWSDGTPVTFTKWLPGEPSHENNRQEDCVVMKGKDGYWADRACEQPLGYICKGGGSGGGSGGGS .
stdout: 0

stdin: Specify measured Mean normalized OD for Lgals8_1 CRD-mouse IgG2a-Fc fusion protein (Fc fusion) YVGTITEQLKPGSLIVIRGHVPKDSERFQVDFQLGNSLKPRADVAFHFNPRFKRSSCIVCNTLTQEKWGWEEITYDMPFRKEKSFEIVFMVLKNKFQVAVNGRHVLLYAHRISPEQIDTVGIYGKVNIHSIGFRGGGSGGGSGGGS .
stdout: 0.062
